Target: T1, TIGIT (human)
T1 chain: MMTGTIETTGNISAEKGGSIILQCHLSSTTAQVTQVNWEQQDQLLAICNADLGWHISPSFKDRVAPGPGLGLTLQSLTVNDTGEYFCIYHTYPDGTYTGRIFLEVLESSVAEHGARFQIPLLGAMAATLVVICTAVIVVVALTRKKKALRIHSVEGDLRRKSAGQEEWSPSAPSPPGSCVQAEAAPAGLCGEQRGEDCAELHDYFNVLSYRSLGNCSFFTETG
Test: cell-based or functional assay
experimentalReadout: IL-2 luciferase reporter, Normalized Fold Change from CD155-ECD (fold)
Kindly answer with a numeric value in fold, unit omitted.

Request: Look at this binder and give its reported IL-2 luciferase reporter, Normalized Fold Change from CD155-ECD. variant CD155 IgV-Fc P18T, W46C, H49R, S65A, S67V, A76T, L79P, S87T, L104M (Fc fusion) WPPPGTGDVVVQAPTQVTGFLGDSVTLPCYLQVPNMEVTHVSQLTCARRGESGSMAVFHQTQGPAYVESKRLEFVTARPGAELRNATLRMFGLRVEDEGNYTCMFVTFPQGSRSVDIWLRVLGSGGGGSEPKSSDKTHTCPPCPAPEAEGAPSVFLFPPKPKDTLMISRTPEVTCVVVDVSHEDPEVKFNWYVDGVEVHNAKTKPREEQYNSTYRVVSVLTVLHQDWLNGKEYKCKVSNKALPAPIEKTISKAKGQPREPQVYTLPPSRDELTKNQVSLTCLVKGFYPSDIAVEWESNGQPENNYKTTPPVLDSDGSFFLYSKLTVDKSRWQQGNVFSCSVMHEALHNHYTQKSLSLSPGK
Response: -3.4
